# target.under.test: Human SGLT2 (hSGLT2) (Homo sapiens, UniProt P31639)
# Sequence (P31639 whole entry): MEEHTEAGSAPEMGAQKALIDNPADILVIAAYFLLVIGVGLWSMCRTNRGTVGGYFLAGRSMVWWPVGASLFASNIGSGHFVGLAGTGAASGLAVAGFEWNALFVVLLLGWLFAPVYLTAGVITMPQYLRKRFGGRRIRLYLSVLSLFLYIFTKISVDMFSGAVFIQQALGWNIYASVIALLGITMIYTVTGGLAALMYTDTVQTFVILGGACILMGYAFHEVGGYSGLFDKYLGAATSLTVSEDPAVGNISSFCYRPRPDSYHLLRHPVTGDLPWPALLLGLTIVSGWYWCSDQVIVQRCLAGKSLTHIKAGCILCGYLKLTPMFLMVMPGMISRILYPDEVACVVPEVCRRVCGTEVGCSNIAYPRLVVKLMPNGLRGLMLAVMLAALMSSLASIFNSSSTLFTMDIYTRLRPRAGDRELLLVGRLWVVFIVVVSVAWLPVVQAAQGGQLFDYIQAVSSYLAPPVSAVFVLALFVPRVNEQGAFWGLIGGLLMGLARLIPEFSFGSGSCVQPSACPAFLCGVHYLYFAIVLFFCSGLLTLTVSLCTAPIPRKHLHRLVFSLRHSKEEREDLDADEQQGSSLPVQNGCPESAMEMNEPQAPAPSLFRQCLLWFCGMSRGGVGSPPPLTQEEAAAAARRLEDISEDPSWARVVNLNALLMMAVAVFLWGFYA
# experiment.description: Sodium-dependent glucose transport (14C-AMG uptake) assay in CHO cells stably expressing hSGLT2
# condition.summary: CHO cells expressing hSGLT2, 14C-AMG uptake, 37° C. for 2 h; single determinations; read-out: hSGLT2 Inhibitory Activity IC50
pIC50: −log10 of the molar value.
quantity.measured: pIC50

INSERT INTO assay_data (query_smiles, quantity_measured, value_reported) VALUES
  ('OC[C@H]1O[C@@H](c2cc(Cc3ncc(-c4ccoc4)s3)c(Cl)cc2Cl)[C@H](O)[C@@H](O)[C@@H]1O', 'pIC50', 7.88),
  ('CCOc1cc(Cl)c(Cc2ncc(-c3cccs3)s2)cc1[C@@H]1O[C@H](CO)[C@@H](O)[C@H](O)[C@H]1O', 'pIC50', 8.37),
  ('OC[C@H]1O[C@@H](c2ccc(Cl)c(Cc3cnc(-c4cnccn4)s3)c2)[C@H](O)[C@@H](O)[C@@H]1O', 'pIC50', 8.36);

1: CCOC[C@H]1O[C@@H](c2ccc(Cl)c(Cc3ncc(-c4ccco4)s3)c2)[C@H](O)[C@@H](O)[C@@H]1O
2: CCc1cnc(Cc2cc([C@@H]3O[C@H](CO)[C@@H](O)[C@H](O)[C@H]3O)c(Cl)cc2Cl)s1
Kindly identify the item with the lower pIC50 figure among these two: 1 and 2 Write the label of whichever entry you select.
1

I: Cc1ccc([C@@H]2O[C@H](CO)[C@@H](O)[C@H](O)[C@H]2O)cc1Cc1ncc(-c2ccc(F)cc2)s1
II: CCCc1cnc(Cc2cc([C@@H]3O[C@H](CO)[C@@H](O)[C@H](O)[C@H]3O)c3ccccc3c2O)s1
# returns the entry with the larger pIC50; inputs I and II Write the label of whichever entry you select.
I

====

# target.under.test: Human SGLT2 (hSGLT2) (Homo sapiens)
# experiment.description: Sodium-dependent glucose transport (14C-AMG uptake) assay in CHO cells stably expressing hSGLT2
# condition.summary: CHO cells expressing hSGLT2, 14C-AMG uptake, 37° C. for 2 h; single determinations; read-out: hSGLT2 Inhibitory Activity IC50
quantity.measured: IC50 (nM)

Some compounds with known IC50 results, for comparison:
INSERT INTO assay_data (compound, value_reported) VALUES
  ('C=CCOc1cc(Cl)c(Cc2ncc(-c3ccoc3)s2)cc1[C@@H]1O[C@H](CO)[C@@H](O)[C@H](O)[C@H]1O', 1.54),
  ('Cc1ccc(-c2ncc(Cc3cc([C@@H]4O[C@H](CO)[C@@H](O)[C@H](O)[C@H]4O)ccc3Cl)s2)s1', 10.4),
  ('OC[C@H]1O[C@@H](c2ccc(Cl)c(C3(c4ncc(-c5ccco5)s4)CC3)c2)[C@H](O)[C@@H](O)[C@@H]1O', 47.1),
  ('CCc1cnc(Cc2cn([C@@H]3O[C@H](CO)[C@@H](O)[C@H](O)[C@H]3O)c3ccccc23)s1', 180),
  ('COc1cc(Cl)c(Cc2ncc(-c3ccccc3)s2)cc1[C@@H]1O[C@H](CO)[C@@H](O)[C@H](O)[C@H]1O', 2.01),
  ('OC[C@H]1O[C@@H](c2ccc(F)c(Cc3ncc(-c4ccc(F)cc4)s3)c2)[C@H](O)[C@@H](O)[C@@H]1O', 47.7),
  ('OC[C@H]1O[C@@H](c2cc(Cc3ncc(-c4ccsc4)s3)c(Cl)cc2F)[C@H](O)[C@@H](O)[C@@H]1O', 2.12),
  ('COc1c(Cc2ncc(C3CCCC3)s2)cc([C@@H]2O[C@H](CO)[C@@H](O)[C@H](O)[C@H]2O)c2ccccc12', 26.8);

A: CCCCCCCc1cnc(Cc2cc([C@@H]3O[C@H](CO)[C@@H](O)[C@H](O)[C@H]3O)c3ccccc3c2OC)s1
B: OC[C@H]1O[C@@H](c2ccc(F)c(Cc3ncc(-c4ccoc4)s3)c2)[C@H](O)[C@@H](O)[C@@H]1O
C: OC[C@H]1O[C@@H](c2cc(Cc3ncc(-c4ccco4)s3)cc3ccccc23)[C@H](O)[C@@H](O)[C@@H]1O
D: OC[C@H]1O[C@@H](c2cc(Cc3ncc(-c4cccs4)s3)c(Cl)cc2Cl)[C@H](O)[C@@H](O)[C@@H]1O
hey, can you rank those compounds up there by IC50? biggest number first please Rank them, then answer with their labels in that order.
B, C, A, D
